tested-target: serotonine transporter (SERT) receptor (Homo sapiens, UniProt P31645)
Construct: expressed in transfected cells; host or cells: CHO cells
Sequence (P31645 whole entry): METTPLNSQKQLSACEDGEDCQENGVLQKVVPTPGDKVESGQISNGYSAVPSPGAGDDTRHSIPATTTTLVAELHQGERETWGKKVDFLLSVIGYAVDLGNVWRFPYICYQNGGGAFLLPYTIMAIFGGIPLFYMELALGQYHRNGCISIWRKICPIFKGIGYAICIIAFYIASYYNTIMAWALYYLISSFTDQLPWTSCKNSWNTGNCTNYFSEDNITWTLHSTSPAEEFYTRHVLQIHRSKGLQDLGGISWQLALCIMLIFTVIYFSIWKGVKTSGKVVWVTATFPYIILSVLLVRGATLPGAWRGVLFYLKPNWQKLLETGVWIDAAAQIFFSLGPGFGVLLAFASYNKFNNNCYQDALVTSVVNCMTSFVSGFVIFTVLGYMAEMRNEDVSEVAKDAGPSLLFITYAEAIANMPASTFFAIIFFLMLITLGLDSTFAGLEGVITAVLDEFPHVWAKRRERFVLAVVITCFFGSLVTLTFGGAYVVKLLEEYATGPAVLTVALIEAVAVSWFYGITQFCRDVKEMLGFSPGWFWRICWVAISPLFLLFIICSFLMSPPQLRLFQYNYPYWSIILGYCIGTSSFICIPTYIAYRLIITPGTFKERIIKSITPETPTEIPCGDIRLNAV
assay-summary: Binding assay SERT (h), [3H]imipramine, CHO cells
setup-conditions: read-out: SERT [%]
experimental-endpoint: inhibition at 1 µM (%)
Please reply with the bare figure in % and do not write the unit itself.

Exercise: Name the recorded inhibition at 1 µM for O=S(=O)(NCCCN1CCN(c2nsc3ccccc23)CC1)c1ccc(Cl)s1 [Compound 196] .
Solution: 75

Exercise: Repeat with O=S(=O)(NCCCCN1CCN(c2cccc3[nH]ccc23)CC1)c1c[nH]c2ncccc12 [Compound 31]
Solution: -2

Exercise: Then this molecule: O=S(=O)(NCCCN1CC=C(c2c[nH]c3ccc(F)cc23)CC1)c1cccc(O)c1 [Compound 437]
Solution: 105

Exercise: Please give the result for O=S(=O)(NCCCCN1CCN(c2cccc3[nH]ccc23)CC1)c1cc2ccc(Cl)cc2s1 [Compound 363] too.
Solution: 32

Exercise: Also, O=S(=O)(NCCCN1CCN(c2nsc3ccccc23)CC1)c1cccs1 [Compound 261] please.
Solution: 60

Exercise: Follow-up item: N#Cc1cccc(S(=O)(=O)NCCCN2CCC(c3noc4cc(F)ccc34)CC2)c1 [Compound 338]
Solution: 21

Exercise: Next entry: Cc1cccc(S(=O)(=O)NCCCN2CCN(c3nsc4ccccc34)CC2)c1 [Compound 7]
Solution: 88

Exercise: Now the same for O=S(=O)(NCCCN1CCC(c2noc3cc(F)ccc23)CC1)c1cccc(Br)c1 [Compound 110]
Solution: 8

Exercise: O=S(=O)(NCCCN1CCC(c2noc3cc(F)ccc23)CC1)c1ccc(F)cc1 [Compound 326] ?
Solution: 19

Exercise: Again, but for O=S(=O)(NCCCN1CCN(c2nsc3ccccc23)CC1)c1cccc2scnc12 [Compound 267]
Solution: 91

Exercise: Consider next the molecule O=S(=O)(NCCCCN1CCN(c2noc3ccccc23)CC1)c1ccc(F)c(Cl)c1 [Compound 276] in the same way.
Solution: 3

Exercise: How about this molecule: Cc1c(S(=O)(=O)NCCCCN2CCN(c3cccc4[nH]ccc34)CC2)sc2ccc(F)cc12 [Compound 364]
Solution: 35

Exercise: # iterate: O=S(=O)(NCCCCN1CCN(c2nsc3ccccc23)CC1)c1cccs1 [Compound 238]
Solution: 13

Exercise: O=S(=O)(NCCCCN1CCC(c2noc3cc(F)ccc23)CC1)c1ccc(Cl)cc1 [Compound 296] , same question.
Solution: 49

Exercise: Do the same for O=S(=O)(NCCCCN1CCN(c2cccc3[nH]ccc23)CC1)c1cccc(F)c1 [Compound 28] please
Solution: 53

Exercise: Let us now turn to O=S(=O)(NCCCCN1CCN(c2nsc3ccccc23)CC1)c1c[nH]c2ncccc12 [Compound 247]
Solution: 14

Exercise: Also O=S(=O)(NCCCCN1CCN(c2cccc3[nH]ccc23)CC1)c1ccccc1 [Compound 27] ?
Solution: -3

----------
tested-target: UniProt:P35348
Sequence (P35348 whole entry): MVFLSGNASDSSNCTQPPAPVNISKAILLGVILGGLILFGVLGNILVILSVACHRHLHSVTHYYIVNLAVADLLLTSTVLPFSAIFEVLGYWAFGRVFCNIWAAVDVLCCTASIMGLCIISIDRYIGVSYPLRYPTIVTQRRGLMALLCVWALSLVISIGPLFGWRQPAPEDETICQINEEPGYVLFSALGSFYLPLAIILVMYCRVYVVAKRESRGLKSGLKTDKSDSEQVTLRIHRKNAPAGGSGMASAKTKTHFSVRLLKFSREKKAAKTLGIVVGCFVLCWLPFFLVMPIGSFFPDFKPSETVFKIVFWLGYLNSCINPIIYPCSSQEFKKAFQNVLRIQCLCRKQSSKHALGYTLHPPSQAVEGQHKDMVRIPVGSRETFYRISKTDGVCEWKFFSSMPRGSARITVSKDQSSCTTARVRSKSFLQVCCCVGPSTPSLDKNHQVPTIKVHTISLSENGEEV
assay-summary: Cellular functional assay, adrenergic α1A receptor (agonism/antagonism)
Type: cell-based
setup-conditions: agonist effect, percent of control specific agonist response; compounds tested at 1×10^−6M; read-out: α1A -ag [%]
Experimental: […]. The compounds were tested at the concentration of 1×10^−6M. […]
Give activation at 1 µM for every item shown.
Write the answer as a number in %, unit excluded.

Exercise: What measured activation at 1 µM goes with `O=S(=O)(NCCCCN1CCN(c2noc3ccccc23)CC1)c1cc2ccc(Cl)cc2s1` ?
Solution: 0

Exercise: // repeat for `O=S(=O)(NCCCCN1CCC(c2noc3cc(F)ccc23)CC1)c1ccc2cc(Cl)ccc2c1` and report
Solution: 0

Exercise: Next: `O=S(=O)(NCCCCN1CCN(c2nsc3ccccc23)CC1)c1ccc2cc(Cl)ccc2c1`
Solution: 0

Exercise: What do you have for `O=S(=O)(NCCCCN1CCC(c2noc3cc(F)ccc23)CC1)c1csc2ccccc12` ?
Solution: 0

Exercise: Request: `O=S(=O)(NCCCN1CCC(c2noc3cc(F)ccc23)CC1)c1ccc2cc(Cl)ccc2c1`
Solution: 0

Exercise: For `O=S(=O)(NCCCCN1CCN(c2cccc3[nH]ccc23)CC1)c1ccc(F)cc1` then?
Solution: 1

Exercise: Next molecule: `N#Cc1cccc(S(=O)(=O)NCCCN2CCC(c3noc4cc(F)ccc34)CC2)c1`
Solution: 2

Exercise: Next up: `O=S(=O)(NCCCCN1CCC(c2noc3cc(F)ccc23)CC1)c1cc2ccc(Cl)cc2s1`
Solution: 1

----------
tested-target: serotonine transporter (SERT) receptor (Homo sapiens, UniProt P31645)
Construct: expressed in transfected cells; host or cells: CHO cells
assay-summary: Binding assay SERT (h), [3H]imipramine, CHO cells
setup-conditions: read-out: SERT [%]
experimental-endpoint: inhibition at 1 µM

Exercise: Name the reported inhibition at 1 µM value associated with the molecule O=c1[nH]c2cccc(N3CCN(CCCNS(=O)(=O)c4cccc(F)c4)CC3)c2[nH]1 [Compound 176]
Solution: -3%

Exercise: Then O=S(=O)(NCCCCN1CCC(c2noc3cc(F)ccc23)CC1)c1cccc(Cl)c1 [Compound 105] ?
Solution: -11%

Exercise: // next record O=S(=O)(NCCCCN1CCN(c2cccc3[nH]ccc23)CC1)c1ccc(F)cc1 [Compound 359]
Solution: 33%

Exercise: // query: Cc1[nH]c2ccc(Cl)cc2c1C1=CCN(CCNS(=O)(=O)c2ccc(F)cc2)CC1 [Compound 449]
Solution: 21%

----------
tested-target: serotoninergic 5-HT6 receptor (Homo sapiens, UniProt P50406)
Sequence (P50406 whole entry): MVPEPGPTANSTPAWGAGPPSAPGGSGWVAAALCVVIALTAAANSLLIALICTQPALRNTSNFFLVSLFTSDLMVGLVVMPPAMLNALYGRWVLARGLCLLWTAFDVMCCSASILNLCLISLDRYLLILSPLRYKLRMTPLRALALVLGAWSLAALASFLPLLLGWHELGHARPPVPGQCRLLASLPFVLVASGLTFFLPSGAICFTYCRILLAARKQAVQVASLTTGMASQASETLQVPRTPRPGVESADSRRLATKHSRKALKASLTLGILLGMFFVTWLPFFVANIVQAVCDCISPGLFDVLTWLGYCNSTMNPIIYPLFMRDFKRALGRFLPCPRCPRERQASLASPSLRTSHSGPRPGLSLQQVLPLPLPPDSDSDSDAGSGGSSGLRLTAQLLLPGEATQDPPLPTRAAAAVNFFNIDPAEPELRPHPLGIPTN
assay-summary: Cellular functional assay, serotoninergic 5-HT6 receptor (agonism/antagonism)
Assay type: cell-based
setup-conditions: agonist effect, percent of control specific agonist response; compounds tested at 1×10^−6M; read-out: 5-HT6-ag [%]
Please respond with reported activation at 1 µM for every item in the list.
Report the figure in % without appending any unit label.

Exercise: Requested read-out: activation at 1 µM. Entry: `O=S(=O)(NCCCCN1CCC(c2noc3cc(F)ccc23)CC1)c1cc2ccc(Cl)cc2s1`
Solution: 0

Exercise: Now consider `O=S(=O)(NCCCCN1CCC(c2noc3cc(F)ccc23)CC1)c1csc2ccccc12` .
Solution: -3

Exercise: Same again, this time with `O=S(=O)(NCCN1CCC(c2noc3cc(F)ccc23)CC1)c1ccc2ccccc2c1`
Solution: 2

Exercise: Request: `O=S(=O)(NCCCCN1CCC(c2noc3cc(F)ccc23)CC1)c1ccc2ccccc2c1`
Solution: 1

----------
tested-target: adrenergic α2C receptor (Homo sapiens, UniProt P18825)
Sequence (P18825 whole entry): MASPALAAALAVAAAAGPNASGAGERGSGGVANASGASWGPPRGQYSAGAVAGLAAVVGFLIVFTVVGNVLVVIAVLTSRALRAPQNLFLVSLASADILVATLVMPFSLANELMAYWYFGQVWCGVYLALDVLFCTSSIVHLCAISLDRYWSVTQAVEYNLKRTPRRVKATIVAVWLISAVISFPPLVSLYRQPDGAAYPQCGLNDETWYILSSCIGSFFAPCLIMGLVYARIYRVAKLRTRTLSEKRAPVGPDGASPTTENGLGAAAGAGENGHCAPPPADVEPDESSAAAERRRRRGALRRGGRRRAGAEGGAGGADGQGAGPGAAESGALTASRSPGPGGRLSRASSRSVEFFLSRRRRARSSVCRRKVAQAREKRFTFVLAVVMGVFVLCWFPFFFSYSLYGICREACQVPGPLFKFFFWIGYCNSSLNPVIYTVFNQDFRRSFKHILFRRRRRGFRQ
assay-summary: Binding assay α2C (h), [3H]RX 821002, CHO cells
Design: expressed in transfected cells; host or cells: CHO cells
setup-conditions: read-out: α2C [%]
Hi there, I'd appreciate the recorded inhibition at 1 µM for every entry that follows.
Write the number in % without appending the unit.

Exercise: Quick one: inhibition at 1 µM of `O=S(=O)(NCCCCN1CCN(c2cccc3[nH]ccc23)CC1)c1cccc(F)c1` ?
Solution: 92

Exercise: Moving on to the next compound: `O=S(=O)(NCCCCN1CCN(c2noc3ccccc23)CC1)c1cc2ccc(Cl)cc2s1`
Solution: 109

Exercise: Also need `O=c1[nH]c2cccc(N3CCN(CCCCNS(=O)(=O)c4cccc5ccccc45)CC3)c2[nH]1` , thanks.
Solution: 94

Exercise: Same read-out for `O=S(=O)(NCCCCN1CCN(c2nsc3ccccc23)CC1)c1cccc(O)c1` ?
Solution: 99

Exercise: Further, for `O=S(=O)(NCCN1CCC(c2noc3cc(F)ccc23)CC1)c1ccc2ccccc2c1` ?
Solution: 99

Exercise: `O=S(=O)(NCCCN1CCN(c2nsc3ccccc23)CC1)c1ccc2ccccc2c1` ?
Solution: 93

Exercise: Queued: `Cc1c(S(=O)(=O)NCCCCN2CCN(c3noc4ccccc34)CC2)sc2ccc(F)cc12`
Solution: 106

Exercise: Also `O=S(=O)(NCCN1CCC(c2noc3cc(F)ccc23)CC1)c1cccc2ccccc12` ?
Solution: 99

----------
tested-target: serotoninergic 5-HT6 receptor (Homo sapiens)
assay-summary: Binding assay 5-HT6 (h), [3H]LSD, CHO cells
Set-up: expressed in transfected cells; host or cells: CHO cells
setup-conditions: read-out: 5-HT6
experimental-endpoint: inhibition at 1 µM (%)
Answer format: numeric, % implied, no suffix.

Exercise: Can you share its inhibition at 1 µM? I mean this compound: `Cc1[nH]c2ccc(Cl)cc2c1C1=CCN(CCCCNS(=O)(=O)c2cccc(F)c2)CC1`
Solution: 96

Exercise: Now give it for `N#Cc1cccc(S(=O)(=O)NCCCN2CCC(c3noc4cc(F)ccc34)CC2)c1` too.
Solution: 94

Exercise: Another compound: `Cc1cccc(S(=O)(=O)NCCCN2CCN(c3cccc4[nH]c(=O)[nH]c34)CC2)c1`
Solution: -4

Exercise: Could you do the same for `O=S(=O)(NCCCCN1CCN(c2noc3ccccc23)CC1)c1cccc2ccccc12` , please?
Solution: 96

Exercise: Same lookup for `O=S(=O)(NCCCCN1CCN(c2cccc3[nH]ccc23)CC1)c1ccc(C(F)(F)F)cc1` , please.
Solution: 67

Exercise: Next compound up: `O=S(=O)(NCCCCN1CCN(c2cccc3c2OCCO3)CC1)c1ccc(F)c(Cl)c1`
Solution: 7

Exercise: Now the same for `O=S(=O)(NCCCN1CCN(c2nsc3ccccc23)CC1)c1ccc(F)c(F)c1`
Solution: 101

Exercise: Queued: `O=S(=O)(NCCCN1CCN(c2nsc3ccccc23)CC1)c1cccc2ccccc12`
Solution: 84
